Provenance of the data: paper PMC9482650

- targetOrTestSystem: T1, LIN7A, O14910
- T1 sequence (O14910 103-200, limits assumed, looked up): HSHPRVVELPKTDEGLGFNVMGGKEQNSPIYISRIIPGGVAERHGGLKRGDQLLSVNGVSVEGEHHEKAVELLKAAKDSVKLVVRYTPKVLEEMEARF
- experimentalProtocol: holdup assay
- Parameters: key: below the threshold = too weak to quantify, mostly under pKd 3.1 to 4
- appliedConditions: plain residues with an end cap or a label only (N-terminal biotin on a linker: ttds)
propertyLabel: pKd

> print(dat)
                                  binder        observedvalue
1          PRVKPQRSKV [PPP1R13L, Q8WUF5]  below the threshold
2          QRQARSETLV [HPV59-E6, Q81964]  below the threshold
3  NDPAWDETNL [ARHGEF7, Q14155;Q14155-1]  below the threshold
4            DKDPHSETAL [TMIGD1, Q6UXZ0]  below the threshold
